Below, each entry is listed alongside its reported IC50 (read off the curve).
target or system: recombinant human KLK5 (human) (UniProt Q9Y337)
Sequence (Q9Y337 67-293): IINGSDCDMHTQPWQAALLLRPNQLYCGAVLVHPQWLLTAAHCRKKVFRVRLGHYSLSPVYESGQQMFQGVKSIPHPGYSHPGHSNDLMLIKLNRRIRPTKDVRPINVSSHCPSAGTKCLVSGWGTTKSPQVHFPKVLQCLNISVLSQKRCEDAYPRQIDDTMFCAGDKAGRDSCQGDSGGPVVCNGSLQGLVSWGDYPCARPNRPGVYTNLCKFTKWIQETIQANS
protocol text: pro-KLK7 coupled assay, 5 nM KLK5, 125 nM pro-KLK7, suc-LLVY-AMC
Numeric only. Scale: nM

Worked set:
* 2-3F4 (antibody, V domains shown) VH: QSVEESRGGLIKPTDTLTLTCTASGFSLSNYGVSWVRQAPGNGLEYIGFIGYGGSTYYASWAKSRSTITRNTNLNTVTLQMTSLTAADTATYFCARLCGVDCADALDSWGPGTLVTVSS VL: AYYMTQTPASVEVAVGGTVTIKCQASEDIGSYCSWYQQKPGQPPKLLIYDASDLASGVPSRFKGSGSGTDFTLTISGVQCDDAATYYCQQDYTGNNVDNTFGGGSEVVVK | 1
* 8B7 (antibody, V domains shown) VH: QSVKESEGGLFKPTDNLTLTCTVSGFSLSNYGVTWVRQAPGNGLEYIGFIGSSGSAYYASWAKSRSTITRNTNLNTVTLKMTSLTAADTATYFCARDDVGGGKSLDIWGPGTLVTVSS VL: NIVMTQTPASVEVAVGGTVTIKCQASQSIGSYLSWYQQKPGQPPKLLIYDASNLASGVPSRFKGSGSGTQFTLSISDLECADAATYYCHQDYTSNNVDNTFGGGTEVVIK | 1

Return IC50 (read off the curve) for the following binder: 9H5 (antibody, V domains shown) VH: QSVKESEGGLFKPTDNLTLTCTVSGFSLSSYGVSWVRQAPGNGLEYIGFIGSGGFAYYASWAKSRSTITRNTNLNTVTLKMTSLTAADTATYFCARDDVGGGKSLDIWGPGTVVTVSV VL: NIVMTQTPASVEAAVGGTVTINCQASQSISSYLSWYQQKSGQRPKLLIFSASTLASGVPSRFTGSGSGTQFTLTISDLQCADAATYYCHQDYTSSNVDNTFGGGTEVVVK
0.8

Reference for the values: patent US20200040103A1
